Mean % Hydrolysis for assorted compounds
# Tested on: IMCSzyme™ (recombinant glucuronidase)
# Test Name: IMCSzyme hydrolysis of opiate glucuronides
# Assay type: biochemical
# Condition Context: 55° C., 0 min
Metric: Mean % Hydrolysis (%)

• CN1CC[C@]23c4c5ccc(O[C@@H]6O[C@H](C(=O)O)[C@@H](O)[C@H](O)[C@H]6O)c4O[C@H]2C(=O)CC[C@H]3[C@H]1C5 [Hydromorphone Glucuronide] = 58.5
• CN1CC[C@]23c4c5ccc(O[C@@H]6O[C@H](C(=O)O)[C@@H](O)[C@H](O)[C@H]6O)c4O[C@H]2C(=O)CC[C@@]3(O)[C@H]1C5 [Oxymorphone Glucuronide] = 43.6
• COc1ccc2c3c1O[C@H]1[C@@H](O[C@@H]4O[C@H](C(=O)O)[C@@H](O)[C@H](O)[C@H]4O)C=C[C@H]4[C@@H](C2)N(C)CC[C@@]341 [Codeine Glucuronide] = 15.7
• CN1CC[C@]23c4c5ccc(O[C@@H]6O[C@H](C(=O)O)[C@@H](O)[C@H](O)[C@H]6O)c4O[C@H]2[C@@H](O)C=C[C@H]3[C@H]1C5 [Morphine-3-Glucuronide] = 99.5
• CN1CC[C@]23c4c5ccc(O)c4O[C@H]2[C@@H](O[C@@H]2O[C@H](C(=O)O)[C@@H](O)[C@H](O)[C@H]2O)C=C[C@H]3[C@H]1C5 [Morphine-6-Glucuronide] = 40.4
